For each record, write down the corresponding Tagg.
- testDescription: Thermostability, temperature of aggregation (ProteoStat Thermal Shift)
- Format: physicochemical
- Parameters: key: temperature in °C
- conditionInfo: pH 5.0
// return a plain number; no unit text

Summary for this molecule, SEQID-00622: protein of the 168 nutritive polypeptide library (protein, listed as Oryza sativa, source: /note="subsp. japonica", protein of the 168 nutritive polypeptide library) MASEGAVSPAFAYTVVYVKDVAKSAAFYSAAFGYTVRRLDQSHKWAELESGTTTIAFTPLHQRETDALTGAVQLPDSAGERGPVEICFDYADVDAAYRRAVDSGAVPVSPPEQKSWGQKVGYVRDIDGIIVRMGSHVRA : Tagg is 42.5

Sure, the documented Tagg for SEQID-00485: nutritive polypeptide naturally produced in Chickpea, recombinantly expressed in E. coli (protein, listed as Cicer arietinum) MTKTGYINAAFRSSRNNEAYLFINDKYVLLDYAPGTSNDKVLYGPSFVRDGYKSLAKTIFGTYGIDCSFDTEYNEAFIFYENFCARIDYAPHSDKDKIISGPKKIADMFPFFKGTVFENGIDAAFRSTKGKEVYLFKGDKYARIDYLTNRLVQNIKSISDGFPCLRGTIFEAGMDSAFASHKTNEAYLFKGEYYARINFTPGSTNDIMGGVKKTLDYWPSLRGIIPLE is 31.5

Form: molecule = SEQID-00100: nutritive polypeptide (protein, listed as Lactobacillus acidophilus) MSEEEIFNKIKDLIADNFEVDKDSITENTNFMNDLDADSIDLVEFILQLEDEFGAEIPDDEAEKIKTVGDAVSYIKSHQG ; Tagg = 95

Tagg measured on SEQID-00502: protein of the 168 nutritive polypeptide library (protein, Glycine max, protein of the 168 nutritive polypeptide library) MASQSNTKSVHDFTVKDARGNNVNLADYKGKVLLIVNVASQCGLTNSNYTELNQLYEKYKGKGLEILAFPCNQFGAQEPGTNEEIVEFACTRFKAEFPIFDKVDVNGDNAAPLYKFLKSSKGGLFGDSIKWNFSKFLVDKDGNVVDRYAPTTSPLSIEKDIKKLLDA = 77
